Measured IC50 values are reported for all entries that follow.
system: MMP-1 (Homo sapiens, UniProt P03956)
Sequence (P03956 100-469, species assumed): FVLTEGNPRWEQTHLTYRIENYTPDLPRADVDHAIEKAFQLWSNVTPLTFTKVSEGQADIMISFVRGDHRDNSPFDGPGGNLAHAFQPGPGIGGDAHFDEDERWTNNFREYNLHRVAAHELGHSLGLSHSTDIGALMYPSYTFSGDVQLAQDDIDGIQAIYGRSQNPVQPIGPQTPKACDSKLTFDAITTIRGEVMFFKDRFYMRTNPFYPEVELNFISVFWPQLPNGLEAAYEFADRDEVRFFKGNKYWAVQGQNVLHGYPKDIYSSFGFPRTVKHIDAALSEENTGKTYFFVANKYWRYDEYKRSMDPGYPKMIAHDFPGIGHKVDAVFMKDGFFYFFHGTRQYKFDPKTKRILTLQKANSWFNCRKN
experiment.description: MMP-1 inhibitory action (Type I collagen Activity Measurement kit, FITC-labeled collagen type I)
Format: biochemical
run.parameters: Experimental Example 2; read-out: IC50 MMP1

Use the examples below as a reference point.
CCOC(=O)c1cc(-c2ccc(S(=O)(=O)N[C@@]3(C(=O)O)C(C)[C@@H]3c3ccccc3)s2)no1 (stereo partly drawn) [Example 2-555]    ≥ 1000 nM
CC1[C@H](c2ccccc2)[C@]1(NS(=O)(=O)c1ccc(-c2ccc3c(c2)OCO3)s1)C(=O)O (stereo partly drawn) [Example 2-470]    < 1000 nM

Turning to the following compound.
Any idea what its IC50 is? The compound is COCCCC1(c2ccccc2)CC1(NS(=O)(=O)c1ccc(-n2cc(Cl)cn2)s1)C(=O)O (stereo not drawn) [Example 2-560]
≥ 1000 nM
